Entry source: ChEMBL document CHEMBL2311404

So I've got a bunch of compounds here, and I need their MIC values.
Tested on: Streptococcus pyogenes
TEST_PROTOCOL: Antibacterial activity against erythromycin-susceptible Streptococcus pyogenes A3 by broth microdilution method
Type: functional

INSERT INTO assay_data (smiles_string, value_kind, measured_value) VALUES
  ('CC[C@H]1OC(=O)[C@H](C)C(=O)[C@H](C)[C@@H](O[C@@H]2O[C@H](C)C[C@H](N(C)C)[C@H]2O)[C@](C)(OC)C[C@@H](C)/C(=N\OCC#Cc2cccc3cnccc23)[C@H](C)[C@H]2OC(=O)O[C@@]21C', 'MIC', '≤ 8 ng/mL'),
  ('CC[C@H]1OC(=O)[C@H](C)C(=O)[C@H](C)[C@@H](O[C@@H]2O[C@H](C)C[C@H](N(C)C)[C@H]2O)[C@](C)(OC)C[C@@H](C)/C(=N\OC/C=C/c2cnc3ccccc3c2)[C@H](C)[C@H]2OC(=O)O[C@@]21C', 'MIC', '≤ 8 ng/mL'),
  ('CC[C@H]1OC(=O)[C@H](C)C(=O)[C@H](C)[C@@H](O[C@@H]2O[C@H](C)C[C@H](N(C)C)[C@H]2O)[C@](C)(OC)C[C@@H](C)/C(=N\OCC#Cc2cncc3ccccc23)[C@H](C)[C@H]2OC(=O)O[C@@]21C', 'MIC', '≤ 8 ng/mL');

Query: Return MIC measured with Streptococcus pyogenes given this compound: CC[C@H]1OC(=O)[C@H](C)C(=O)[C@H](C)[C@@H](O[C@@H]2O[C@H](C)C[C@H](N(C)C)[C@H]2O)[C@](C)(OC)C[C@@H](C)/C(=N\OCC#Cc2ccnc3ccccc23)[C@H](C)[C@H]2OC(=O)O[C@@]21C
Reply: 16 ng/mL

---

Tested on: Staphylococcus epidermidis
TEST_PROTOCOL: Antibacterial activity against methicillin-resistant, constitutive MLS-resistant Staphylococcus epidermidis E 2 by broth microdilution method
Type: functional
VALUE_KIND: MIC (µg/mL)
Numbers only, in µg/mL.

INSERT INTO results (smiles_string, assay_system, measured_value) VALUES
  ('CC[C@H]1OC(=O)[C@H](C)C(=O)[C@H](C)[C@@H](O[C@@H]2O[C@H](C)C[C@H](N(C)C)[C@H]2O)[C@](C)(OC)C[C@@H](C)/C(=N\OCC#Cc2ccc(C(=O)c3ccccc3)s2)[C@H](C)[C@H]2OC(=O)O[C@@]21C', 'Staphylococcus epidermidis', 128),
  ('CC[C@H]1OC(=O)[C@H](C)C(=O)[C@H](C)[C@@H](O[C@@H]2O[C@H](C)C[C@H](N(C)C)[C@H]2O)[C@](C)(OC)C[C@@H](C)/C(=N\OCC#Cc2cncc3ccccc23)[C@H](C)[C@H]2OC(=O)O[C@@]21C', 'Staphylococcus epidermidis', 32),
  ('CC[C@H]1OC(=O)[C@H](C)C(=O)[C@H](C)[C@@H](O[C@@H]2O[C@H](C)C[C@H](N(C)C)[C@H]2O)[C@](C)(OC)C[C@@H](C)/C(=N\OCC#Cc2cccc3cnccc23)[C@H](C)[C@H]2OC(=O)O[C@@]21C', 'Staphylococcus epidermidis', 64);

Attention now turns to another entry.
Query: // returns reported MIC for input CC[C@H]1OC(=O)[C@H](C)C(=O)[C@H](C)[C@@H](O[C@@H]2O[C@H](C)C[C@H](N(C)C)[C@H]2O)[C@](C)(OC)C[C@@H](C)/C(=N\OCC#Cc2ccnc3ccccc23)[C@H](C)[C@H]2OC(=O)O[C@@]21C
Reply: 64

---

Tested on: Staphylococcus epidermidis
TEST_PROTOCOL: Antibacterial activity against methicillin-resistant, constitutive MLS-resistant Staphylococcus epidermidis E 2 by broth microdilution method
Format: functional
So I've got a bunch of compounds here, and I need their MIC values.

Reference set, count: 2
INSERT INTO results (compound, assay_system, measured_value) VALUES
  ('CC[C@H]1OC(=O)[C@H](C)[C@@H](O[C@H]2C[C@@](C)(OC)[C@@H](O)[C@H](C)O2)[C@H](C)[C@@H](O[C@@H]2O[C@H](C)C[C@H](N(C)C)[C@H]2O)[C@](C)(OC)C[C@@H](C)C(=O)[C@H](C)[C@@H](O)[C@]1(C)O [CLARITHROMYCIN]', 'Staphylococcus epidermidis', '> 256 µg/mL'),
  ('CC[C@H]1OC(=O)[C@H](C)C(=O)[C@H](C)[C@@H](O[C@@H]2O[C@H](C)C[C@H](N(C)C)[C@H]2O)[C@](C)(OC)C[C@@H](C)/C(=N\OCC#Cc2cccs2)[C@H](C)[C@H]2OC(=O)O[C@@]21C', 'Staphylococcus epidermidis', '64 µg/mL');

Give MIC for all compounds that follow.
1. CC[C@H]1OC(=O)[C@H](C)C(=O)[C@H](C)[C@@H](O[C@@H]2O[C@H](C)C[C@H](N(C)C)[C@H]2O)[C@](C)(OC)C[C@@H](C)/C(=N\OCC#Cc2ccccn2)[C@H](C)[C@H]2OC(=O)O[C@@]21C
2. CC[C@H]1OC(=O)[C@H](C)C(=O)[C@H](C)[C@@H](O[C@@H]2O[C@H](C)C[C@H](N(C)C)[C@H]2O)[C@](C)(OC)C[C@@H](C)/C(=N\OCC#Cc2ccc3[nH]ccc3c2)[C@H](C)[C@H]2OC(=O)O[C@@]21C

Reply:
1: > 256 µg/mL; 2: > 256 µg/mL

---

System: Streptococcus pyogenes
TEST_PROTOCOL: Antibacterial activity against erythromycin-susceptible Streptococcus pyogenes A3 by broth microdilution method
Assay type: functional
So I've got a bunch of compounds here, and I need their MIC values.
Give bare numbers, in µg/mL.

Reference set, count: 2
INSERT INTO results (smiles_string, result_unit, measured_value) VALUES
  ('CC[C@H]1OC(=O)[C@H](C)C(=O)[C@H](C)[C@@H](O[C@@H]2O[C@H](C)C[C@H](N(C)C)[C@H]2O)[C@](C)(OC)C[C@@H](C)/C(=N\OCC#Cc2ccc(-c3ccccn3)s2)[C@H](C)[C@H]2OC(=O)O[C@@]21C', 'µg/mL', 0.125),
  ('CC[C@H]1OC(=O)[C@H](C)C(=O)[C@H](C)[C@@H](O[C@@H]2O[C@H](C)C[C@H](N(C)C)[C@H]2O)[C@](C)(OC)C[C@@H](C)/C(=N\OCC#Cc2ccc(C(=O)c3ccccc3)s2)[C@H](C)[C@H]2OC(=O)O[C@@]21C', 'µg/mL', 0.064);

Attention now turns to another entry.
Query: // returns reported MIC for input CC[C@H]1OC(=O)[C@H](C)[C@@H](O[C@H]2C[C@@](C)(OC)[C@@H](O)[C@H](C)O2)[C@H](C)[C@@H](O[C@@H]2O[C@H](C)C[C@H](N(C)C)[C@H]2O)[C@](C)(O)C[C@@H](C)CN(C)[C@H](C)[C@@H](O)[C@]1(C)O
Reply: 0.125
